test: Cytotoxicity against MDBK cells assessed as growth inhibition after 3 days by MTS assay; assay type: cell-based, Bos taurus; settings: cattle
What CC50 at 72 h was measured for each of the following?
Give bare numbers, in µg/mL.

>  <smiles-record>
Fc1ccc(-c2nc3ccc(N4CCOCC4)nn3c2-c2cccc(-c3ccccc3)c2)cc1

>  <CC50 at 72 h, µg/mL>
12

$$$$

Let us examine a further case.
Query (compound): COc1ccccc1-c1nc2ccc(-c3ccsc3)nn2c1-c1cccc(-c2ccccc2O)c1 ; field requested: CC50 at 72 h
16.2

---

experiment: Cytotoxicity against MDBK cells assessed as growth inhibition after 3 days by MTS assay; type: cell-based, Bos taurus; settings: cattle
Task for the reader: assign each of the following compounds its reported CC50 at 72 h.

Answered examples (5):
>  <smiles-record>
CC(C)(C)c1nc2ccc(-c3ccsc3)nn2c1-c1cccc(-c2ccc(O)cc2)c1

>  <CC50 at 72 h>
> 100 µg/mL

$$$$
>  <smiles-record>
Fc1ccc(-c2nc3ccccn3c2-c2cccc(-c3ccoc3)c2)cc1

>  <CC50 at 72 h>
5.6 µg/mL

$$$$
>  <smiles-record>
CC(C)(C)c1nc2ccc(-c3ccsc3)nn2c1-c1cccc(-c2ccccc2)c1

>  <CC50 at 72 h>
> 100 µg/mL

$$$$
>  <smiles-record>
COc1cccc(-c2nc3ccc(-c4ccsc4)cn3c2-c2cccc(-c3ccccc3)c2)c1

>  <CC50 at 72 h>
> 100 µg/mL

$$$$
>  <smiles-record>
CC(C)(C)c1nc2ccc(-c3ccsc3)nn2c1-c1cccc(-c2cccc(O)c2)c1

>  <CC50 at 72 h>
> 100 µg/mL

$$$$

# batch: return CC50 at 72 h for each of the 5 compounds below
1. Fc1ccc(-c2nc3ccccn3c2-c2cccc(-c3ccc(Cl)cc3)c2)cc1
2. Fc1ccc(-c2nc3ccc(-c4ccsc4)cn3c2-c2cccc(-c3ccccc3)c2)cc1
3. Fc1ccc(-c2nc3ccc(N4CCOCC4)cn3c2-c2ccc(-c3ccccc3)cc2)cc1
4. COc1cccc(-c2cccc(-c3c(-c4ccc(F)cc4)nc4ccccn34)c2)c1
5. CC(C)(C)c1nc2ccc(-c3ccsc3)nn2c1-c1cccc(-c2ccco2)c1

1. 12.7 µg/mL
2. > 33 µg/mL
3. > 50 µg/mL
4. 11.5 µg/mL
5. > 100 µg/mL

Dear reader, for each entry below, please note its CC50 at 72 h.
1. COc1ccc(-c2cccc(-c3c(-c4ccc(F)cc4)nc4ccccn34)c2)cc1
2. COc1ccccc1-c1nc2ccc(-c3ccsc3)nn2c1-c1cccc(-c2ccoc2)c1

1: > 100 µg/mL; 2: > 100 µg/mL

---

experiment: Cytotoxicity against human Huh5-2 cells assessed as growth inhibition after 3 days by MTS assay; assay type: cell-based, Huh-5-2
Could you please report measured CC50 at 72 h for the items listed next?
Give bare numbers, in µg/mL.

See these solved cases before continuing.
>  <smiles-record>
Fc1ccc(-c2nc3ccc(N4CCOCC4)cn3c2-c2cccc(-c3ccccc3)c2)cc1

>  <result-units>
µg/mL

>  <CC50 at 72 h>
11.1

$$$$
>  <smiles-record>
Oc1ccc(-c2cccc(-c3c(-c4ccc(F)cc4)nc4ccccn34)c2)cc1

>  <result-units>
µg/mL

>  <CC50 at 72 h>
69.5

$$$$
>  <smiles-record>
COc1ccccc1-c1nc2ccc(-c3ccsc3)nn2c1-c1cccc(-c2ccc(O)cc2)c1

>  <result-units>
µg/mL

>  <CC50 at 72 h>
22.1

$$$$
>  <smiles-record>
COc1ccccc1-c1cccc(-c2c(-c3ccc(F)cc3)nc3ccccn23)c1

>  <result-units>
µg/mL

>  <CC50 at 72 h>
29.7

$$$$

Would you mind telling me what CC50 at 72 h value was observed for Fc1ccc(-c2nc3ccc(-c4ccccc4)cn3c2-c2cccc(-c3ccccc3)c2)cc1 ?
56.8
